system: NCI-H1693; test: cells; format: functional, cell-based; conditions: Homo sapiens;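 note: growth inhibition of the human cell line, read out with a cell viability assay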
Description: SANGER: Inhibition of human NCI-H1693 cell growth in a cell viability assay.
READOUT KIND: IC50 (µM)

[
  {
    "COMPOUND": "O=c1[nH]c2ccccc2n1C1CCN(Cc2ccc(-c3nc4cc5[nH]cnc5cc4nc3-c3ccccc3)cc2)CC1",
    "READOUT KIND": "IC50",
    "READING QUALIFIER": ">",
    "OBSERVED MEASUREMENT": 2.56
  },
  {
    "COMPOUND": "NC(=O)c1ncn([C@@H]2O[C@H](COP(=O)(O)O)[C@@H](O)[C@H]2O)c1N",
    "READOUT KIND": "IC50",
    "READING QUALIFIER": ">",
    "OBSERVED MEASUREMENT": 2000
  },
  {
    "COMPOUND": "CC(C)=CC[C@@H](O)C1=CC(=O)c2c(O)ccc(O)c2C1=O [SHIKONIN]",
    "READOUT KIND": "IC50",
    "READING QUALIFIER": ">",
    "OBSERVED MEASUREMENT": 16
  },
  {
    "COMPOUND": "CO[C@@]12[C@H](COC(N)=O)C3=C(C(=O)C(C)=C(N)C3=O)N1C[C@@H]1N[C@@H]12 [MITOMYCIN]",
    "READOUT KIND": "IC50",
    "READING QUALIFIER": "=",
    "OBSERVED MEASUREMENT": 0.9
  },
  {
    "COMPOUND": "CC[C@@]1(O)C(=O)OCc2c1cc1n(c2=O)Cc2cc3ccccc3nc2-1 [CAMPTOTHECIN]",
    "READOUT KIND": "IC50",
    "READING QUALIFIER": "=",
    "OBSERVED MEASUREMENT": 0.0267
  },
  {
    "COMPOUND": "COc1cc(Nc2c(C#N)cnc3cc(OCCCN4CCN(C)CC4)c(OC)cc23)c(Cl)cc1Cl [BOSUTINIB]",
    "READOUT KIND": "IC50",
    "READING QUALIFIER": "=",
    "OBSERVED MEASUREMENT": 2
  },
  {
    "COMPOUND": "N#C/C(=C1/Nc2ccccc2S1)c1ccnc(NCCc2cccnc2)n1",
    "READOUT KIND": "IC50",
    "READING QUALIFIER": ">",
    "OBSERVED MEASUREMENT": 8
  },
  {
    "COMPOUND": "CC[C@]1(O)C[C@@H]2CN(CCc3c([nH]c4ccccc34)[C@@](C(=O)OC)(c3cc4c(cc3OC)N(C)[C@H]3[C@@](O)(C(=O)OC)[C@H](OC(C)=O)[C@]5(CC)C=CCN6CC[C@]43[C@@H]65)C2)C1 [VINBLASTINE]",
    "READOUT KIND": "IC50",
    "READING QUALIFIER": "=",
    "OBSERVED MEASUREMENT": 0.0782
  }
]

###

system: BB65-RCC; assay: cells; assay type: functional, cell-based; conditions: Homo sapiens;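 note: growth inhibition of the cell line, measured with a cell viability assay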
Description: SANGER: Inhibition of human BB65-RCC cell growth in a cell viability assay.
# reported IC50; entries follow
READOUT KIND: IC50 (nM)

[
  {
    "SMI": "Cn1c(=O)n(-c2ccc(C(C)(C)C#N)cc2)c2c3cc(-c4cnc5ccccc5c4)ccc3ncc21",
    "TARGET UNDER TEST": "BB65-RCC",
    "UNIT INFO": "nM",
    "READING QUALIFIER": "=",
    "OBSERVED MEASUREMENT": 12.7
  },
  {
    "SMI": "Cc1[nH]c(/C=C2\\C(=O)Nc3ccc(S(=O)(=O)Cc4c(Cl)cccc4Cl)cc32)c(C)c1C(=O)N1CCC[C@@H]1CN1CCCC1",
    "TARGET UNDER TEST": "BB65-RCC",
    "UNIT INFO": "nM",
    "READING QUALIFIER": ">",
    "OBSERVED MEASUREMENT": 2000
  },
  {
    "SMI": "Cc1n[nH]c2ccc(-c3cncc(OC[C@@H](N)Cc4c[nH]c5ccccc45)c3)cc12",
    "TARGET UNDER TEST": "BB65-RCC",
    "UNIT INFO": "nM",
    "READING QUALIFIER": "=",
    "OBSERVED MEASUREMENT": 597
  },
  {
    "SMI": "CO[C@@]12[C@H](COC(N)=O)C3=C(C(=O)C(C)=C(N)C3=O)N1C[C@@H]1N[C@@H]12",
    "TARGET UNDER TEST": "BB65-RCC",
    "UNIT INFO": "nM",
    "READING QUALIFIER": "=",
    "OBSERVED MEASUREMENT": 145
  }
]

###

test system: MC-CAR; assay: cells; format: functional, cell-based; settings: Homo sapiens;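 note: growth inhibition of the human MC-CAR cell line, read out by a cell viability assay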
Description: SANGER: Inhibition of human MC-CAR cell growth in a cell viability assay.

[
  {
    "COMPOUND": "COc1cc(C)c(Sc2cnc(NC(=O)c3ccc(CNC(C)C(C)(C)C)cc3)s2)cc1C(=O)N1CCN(C(C)=O)CC1 (stereo not drawn)",
    "IC50": "> 10200 nM"
  },
  {
    "COMPOUND": "CC(C)=CC[C@@H](O)C1=CC(=O)c2c(O)ccc(O)c2C1=O",
    "IC50": "814 nM"
  },
  {
    "COMPOUND": "CC(O)(CS(=O)(=O)c1ccc(F)cc1)C(=O)Nc1ccc(C#N)c(C(F)(F)F)c1 (stereo not drawn) [BICALUTAMIDE]",
    "IC50": "> 1020 nM"
  },
  {
    "COMPOUND": "CCNC(=O)c1noc(-c2cc(C(C)C)c(O)cc2O)c1-c1ccc(CN2CCOCC2)cc1",
    "IC50": "45.7 nM"
  },
  {
    "COMPOUND": "Cc1[nH]c(/C=C2\\C(=O)Nc3ccc(S(=O)(=O)Cc4c(Cl)cccc4Cl)cc32)c(C)c1C(=O)N1CCC[C@@H]1CN1CCCC1",
    "IC50": "> 2000 nM"
  },
  {
    "COMPOUND": "Cc1nc(Nc2ncc(C(=O)Nc3c(C)cccc3Cl)s2)cc(N2CCN(CCO)CC2)n1",
    "IC50": "> 1280 nM"
  },
  {
    "COMPOUND": "O=c1[nH]c2ccccc2n1C1CCN(Cc2ccc(-c3nc4cc5[nH]cnc5cc4nc3-c3ccccc3)cc2)CC1",
    "IC50": "> 2560 nM"
  },
  {
    "COMPOUND": "Cc1n[nH]c2ccc(-c3cncc(OC[C@@H](N)Cc4c[nH]c5ccccc45)c3)cc12",
    "IC50": "> 1020 nM"
  }
]

###

Recorded IC50 by entry
tested on: ChaGo-K-1; experiment: cells; assay type: functional, cell-based; conditions: Homo sapiens
Description: SANGER: Inhibition of human ChaGo-K-1 cell growth in a cell viability assay.

[
  {
    "SMI": "C[C@]1(c2nc3c(C(N)=O)cccc3[nH]2)CCCN1",
    "TARGET UNDER TEST": "ChaGo-K-1",
    "IC50": "> 5 µM"
  },
  {
    "SMI": "CC(=O)c1c(C)c2cnc(Nc3ccc(N4CCNCC4)cn3)nc2n(C2CCCC2)c1=O",
    "TARGET UNDER TEST": "ChaGo-K-1",
    "IC50": "> 4 µM"
  },
  {
    "SMI": "CC(C)=CC[C@@H](O)C1=CC(=O)c2c(O)ccc(O)c2C1=O",
    "TARGET UNDER TEST": "ChaGo-K-1",
    "IC50": "0.657 µM"
  },
  {
    "SMI": "CCCS(=O)(=O)Nc1ccc(F)c(C(=O)c2c[nH]c3ncc(Cl)cc23)c1F",
    "TARGET UNDER TEST": "ChaGo-K-1",
    "IC50": "> 10 µM"
  }
]

###

tested on: BHY; assay: cells; type: functional, cell-based; conditions: Homo sapiens;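 note: cell growth inhibition read out by a viability assay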
Description: SANGER: Inhibition of human BHY cell growth in a cell viability assay.
The following compounds are listed with their measured IC50 values.

[
  {
    "SMI": "CO[C@@]12[C@H](COC(N)=O)C3=C(C(=O)C(C)=C(N)C3=O)N1C[C@@H]1N[C@@H]12",
    "IC50": "0.0753 µM"
  },
  {
    "SMI": "Cn1c(=O)n(-c2ccc(C(C)(C)C#N)cc2)c2c3cc(-c4cnc5ccccc5c4)ccc3ncc21",
    "IC50": "0.0427 µM"
  },
  {
    "SMI": "C[C@]12O[C@H](C[C@]1(O)CO)n1c3ccccc3c3c4c(c5c6ccccc6n2c5c31)CNC4=O",
    "IC50": "0.872 µM"
  },
  {
    "SMI": "N#C/C(=C1/Nc2ccccc2S1)c1ccnc(NCCc2cccnc2)n1",
    "IC50": "> 8 µM"
  },
  {
    "SMI": "NC(=O)c1ncn([C@@H]2O[C@H](COP(=O)(O)O)[C@@H](O)[C@H]2O)c1N",
    "IC50": "405 µM"
  }
]
